- EXPERIMENTAL_SYSTEM: α7-5HT3 Q79G (Homo sapiens, UniProt P36544, M226I/Q79G/T225I)
- Construct: expressed in transfected cells; host or cells: HEK 293 cells (ATCC CRL-1573)
- Sequence (P36544 with tags, fused parts or gaps Q79G/T225I/M226I): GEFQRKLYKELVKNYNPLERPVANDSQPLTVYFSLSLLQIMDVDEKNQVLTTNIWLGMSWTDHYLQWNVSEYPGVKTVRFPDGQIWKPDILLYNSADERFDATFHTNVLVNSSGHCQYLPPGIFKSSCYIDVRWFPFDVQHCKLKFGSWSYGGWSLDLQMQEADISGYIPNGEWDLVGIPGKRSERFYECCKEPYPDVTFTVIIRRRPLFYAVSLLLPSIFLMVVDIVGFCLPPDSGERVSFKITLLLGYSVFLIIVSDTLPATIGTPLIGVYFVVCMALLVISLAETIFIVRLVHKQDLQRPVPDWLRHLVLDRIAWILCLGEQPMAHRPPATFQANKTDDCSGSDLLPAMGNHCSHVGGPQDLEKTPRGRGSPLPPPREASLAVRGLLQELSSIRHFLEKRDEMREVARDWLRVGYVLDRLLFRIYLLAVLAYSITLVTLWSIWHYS
- METHOD_DESCRIPTION: whole cell voltage clamp recordings (Iss, Ipeak)
- Assay type: cell-based, human/mouse
- CONDITION_INFO: read-out: EC50-Iss, steady state current, IPD 5HT3
Where a name gives a salt, the structure may show the parent alone.
ATTRIBUTE_MEASURED: EC50 (nM)

[
  {
    "COMPOUND": "CCCc1ccc(C(=O)N[C@@H]2CN3CCC2CC3)cc1 [Compound 165S, TFA]",
    "READING": 900
  }
]

###

- EXPERIMENTAL_SYSTEM: α7-5HT3 HC L141F (R425Q R429D R433A) (Homo sapiens, UniProt P36544, L141F/M226I/T225I)
- Construct: expressed in transfected cells; host or cells: HEK 293 cells (A14); mouse layer 2/3 cortical neurons (A19)
- METHOD_DESCRIPTION: whole cell voltage clamp recordings (Iss, Ipeak)
- Format: cell-based, human/mouse
- CONDITION_INFO: read-out: EC50-Ipeak, peak current, IPD 5HT3 HC
pEC50: −log10 of the molar value.
ATTRIBUTE_MEASURED: pEC50

[
  {
    "COMPOUND": "COc1ccc(OC)c(C(=O)N[C@@H]2CN3CCC2CC3)c1 [Compound 89S]",
    "EXPERIMENTAL_SYSTEM": "α7-5HT3 HC L141F (R425Q R429D R433A) (Homo sapiens, UniProt P36544, L141F/M226I/T225I)",
    "READING": 5.64
  }
]

###

- EXPERIMENTAL_SYSTEM: α7-5HT3 Q79G L141S (Homo sapiens, UniProt P36544, L141S/M226I/Q79G/T225I)
- Construct: expressed in transfected cells
- Sequence (P36544 with tags, fused parts or gaps Q79G/L141S/T225I/M226I): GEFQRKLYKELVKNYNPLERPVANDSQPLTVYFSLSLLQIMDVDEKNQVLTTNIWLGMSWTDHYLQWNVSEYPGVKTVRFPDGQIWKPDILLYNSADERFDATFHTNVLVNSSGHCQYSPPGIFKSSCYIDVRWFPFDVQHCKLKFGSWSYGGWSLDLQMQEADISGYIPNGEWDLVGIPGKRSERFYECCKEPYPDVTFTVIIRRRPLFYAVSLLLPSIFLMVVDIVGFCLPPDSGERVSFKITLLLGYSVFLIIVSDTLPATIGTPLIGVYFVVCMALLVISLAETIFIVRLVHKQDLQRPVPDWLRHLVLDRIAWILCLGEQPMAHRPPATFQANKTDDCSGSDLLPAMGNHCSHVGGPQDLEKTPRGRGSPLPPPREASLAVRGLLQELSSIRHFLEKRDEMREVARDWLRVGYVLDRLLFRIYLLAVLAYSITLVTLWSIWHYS
- METHOD_DESCRIPTION: whole cell voltage clamp recordings (Iss, Ipeak)
- Format: cell-based, human/mouse
- CONDITION_INFO: peak current; α7 Q79G L141S, IPD 5HT3; read-out: EC50-Ipeak
pEC50: −log10 of the molar value.
ATTRIBUTE_MEASURED: pEC50

[
  {
    "RECORD_SMILES": "CCCCc1ccc(C(=O)N[C@@H]2CN3CCC2CC3)cc1",
    "READING": 4.91
  }
]

###

- EXPERIMENTAL_SYSTEM: α7-5HT3 Q79G Q139M (Homo sapiens, UniProt P36544, M226I/Q139M/Q79G/T225I)
- Construct: expressed in transfected cells
- METHOD_DESCRIPTION: fluorescence membrane potential (MP) assay, HEK 293 cells
- Assay type: cell-based, human/mouse
- CONDITION_INFO: α7 Q79G Q139M, IPD 5HT3; value (s.e.m.); read-out: EC50-MP

[
  {
    "COMPOUND": "O=C(N[C@@H]1CN2CCC1CC2)c1ccc(C(F)(F)F)cc1 [Compound 22S]",
    "EC50 (nM)": 60
  }
]

###

- EXPERIMENTAL_SYSTEM: α7-5HT3 Q79G Q139G (Homo sapiens, UniProt P36544, M226I/Q139G/Q79G/T225I)
- Construct: expressed in transfected cells
- Sequence (P36544 with tags, fused parts or gaps Q79G/Q139G/T225I/M226I): as the sequence (P36544 with tags, fused parts or gaps Q79G/T225I/M226I) above, with Q117G counted along it
- METHOD_DESCRIPTION: whole cell voltage clamp recordings (Iss, Ipeak)
- Assay type: cell-based, human/mouse
- CONDITION_INFO: steady state current, IPD 5HT3, read-out: EC50-Iss
ATTRIBUTE_MEASURED: EC50

[
  {
    "COMPOUND": "O=C(N[C@@H]1CN2CCC1CC2)c1ccc(C(F)(F)F)cc1 [Compound 22S]",
    "ATTRIBUTE_MEASURED": "EC50",
    "READING": "2700 nM"
  }
]

###

- EXPERIMENTAL_SYSTEM: α7-5HT3 L141F (Homo sapiens, UniProt P36544, L141F/M226I/T225I)
- Construct: expressed in transfected cells; host or cells: HEK 293 cells (ATCC CRL-1573)
- Sequence (P36544 with tags, fused parts or gaps L141F/T225I/M226I): as the sequence (P36544 with tags, fused parts or gaps Q79G/L141S/T225I/M226I) above, with G57Q, S119F counted along it
- METHOD_DESCRIPTION: fluorescence membrane potential (MP) assay, HEK 293 cells
- Assay type: cell-based, human/mouse
- CONDITION_INFO: read-out: EC50-MP; α7 L141F, IPD 5HT3; value (s.e.m.)
pEC50: −log10 of the molar value.
Measured pEC50 of individual entries
ATTRIBUTE_MEASURED: pEC50

[
  {
    "COMPOUND": "COc1ccc(C(=O)N[C@@H]2CN3CCC2CC3)c(OC)c1 [Compound 88S]",
    "READING": 7.00
  },
  {
    "COMPOUND": "COc1ccccc1C(=O)N[C@@H]1CN2CCC1CC2 [Compound 19S]",
    "READING": 5.85
  },
  {
    "COMPOUND": "c1ccc2c(c1)CC1C(=NN2)C2CCN1CC2 (stereo not shown)",
    "READING": 6.12
  },
  {
    "COMPOUND": "COc1ccc(OC)c(C(=O)N[C@@H]2CN3CCC2CC3)c1 [Compound 89S]",
    "READING": 6.40
  }
]

###

- EXPERIMENTAL_SYSTEM: α7-5HT3 HC L141F (R425Q R429D R433A) (Homo sapiens, UniProt P36544, L141F/M226I/T225I)
- Construct: expressed in transfected cells; host or cells: HEK 293 cells (A14); mouse layer 2/3 cortical neurons (A19)
- METHOD_DESCRIPTION: whole cell voltage clamp recordings (Iss, Ipeak)
- Assay type: cell-based, human/mouse
- CONDITION_INFO: read-out: EC50-Iss, steady state current, IPD 5HT3 HC

[
  {
    "COMPOUND": "COc1ccc(OC)c(C(=O)N[C@@H]2CN3CCC2CC3)c1 [Compound 89S]",
    "EC50 (nM)": 1500
  }
]

###

- EXPERIMENTAL_SYSTEM: α7-GlyR L141F (Homo sapiens, UniProt P36544, L141F)
- Construct: expressed in transfected cells; host or cells: HEK 293 cells (A15); cortical neurons transduced with AAV, synapsin promoter (A22)
- Sequence (P36544 with tags, fused parts or gaps L141F): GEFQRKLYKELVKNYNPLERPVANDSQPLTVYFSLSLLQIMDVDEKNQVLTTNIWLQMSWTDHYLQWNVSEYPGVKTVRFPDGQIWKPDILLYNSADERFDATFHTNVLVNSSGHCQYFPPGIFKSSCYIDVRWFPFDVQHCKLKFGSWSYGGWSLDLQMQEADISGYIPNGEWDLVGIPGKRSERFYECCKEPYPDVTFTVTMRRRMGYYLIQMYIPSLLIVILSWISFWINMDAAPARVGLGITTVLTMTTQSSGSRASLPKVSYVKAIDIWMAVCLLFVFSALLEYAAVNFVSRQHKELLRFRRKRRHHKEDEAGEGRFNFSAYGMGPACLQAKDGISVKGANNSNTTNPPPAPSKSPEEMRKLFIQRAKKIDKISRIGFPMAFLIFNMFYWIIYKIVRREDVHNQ
- METHOD_DESCRIPTION: whole cell voltage clamp recordings (Iss, Ipeak)
- Assay type: cell-based
- CONDITION_INFO: EC50-Ipeak, peak current, IPD GlyR, *complex: multiphasic dose response
pEC50: −log10 of the molar value. Counter-ions that a name gives are not always drawn.
Measured pEC50 of individual entries

[
  {
    "COMPOUND": "COc1ccc(Cl)cc1C(=O)N[C@@H]1CN2CCC1CC2 [Compound 118S, TFA]",
    "pEC50": 5.49
  },
  {
    "COMPOUND": "COc1ccc(F)cc1C(=O)N[C@@H]1CN2CCC1CC2 [Compound 119S, TFA]",
    "pEC50": 5.42
  }
]

###

- EXPERIMENTAL_SYSTEM: α7-5HT3 Q79G Q139G (Homo sapiens, UniProt P36544, M226I/Q139G/Q79G/T225I)
- Construct: expressed in transfected cells
- METHOD_DESCRIPTION: fluorescence membrane potential (MP) assay, HEK 293 cells
- Type: cell-based, human/mouse
- CONDITION_INFO: IPD 5HT3
ATTRIBUTE_MEASURED: EC50 (µM)

[
  {
    "COMPOUND": "O=C(N[C@@H]1CN2CCC1CC2)c1ccc(C(F)(F)F)cc1 [Compound 22S]",
    "ATTRIBUTE_MEASURED": "EC50",
    "READING": 3.9
  }
]

###

- EXPERIMENTAL_SYSTEM: α7-5HT3 Q79G (Homo sapiens, UniProt P36544, M226I/Q79G/T225I)
- Construct: expressed in transfected cells; host or cells: HEK 293 cells (ATCC CRL-1573)
- METHOD_DESCRIPTION: whole cell voltage clamp recordings (Iss, Ipeak)
- Format: cell-based, human/mouse
- CONDITION_INFO: read-out: EC50-Ipeak, peak current, IPD 5HT3
Counter-ions that a name gives are not always drawn.

[
  {
    "COMPOUND": "CCCc1ccc(C(=O)N[C@@H]2CN3CCC2CC3)cc1 [Compound 165S, TFA]",
    "EC50, µM": 5.9
  }
]

###

- EXPERIMENTAL_SYSTEM: α7-5HT3 Q79G Q139M (Homo sapiens, UniProt P36544, M226I/Q139M/Q79G/T225I)
- Construct: expressed in transfected cells
- METHOD_DESCRIPTION: fluorescence membrane potential (MP) assay, HEK 293 cells
- Type: cell-based, human/mouse
- CONDITION_INFO: read-out: EC50-MP; α7 Q79G Q139M, IPD 5HT3; value (s.e.m.)
Structures can show the parent of a compound that is named as a salt.

[
  {
    "MOLECULE": "CS(=O)(=O)c1ccc(C(=O)N[C@H]2CN3CCC2CC3)cc1 [Compound 38R, TFA]",
    "EC50 / µM": 0.23
  }
]
